The reported measurements were obtained from patent US7951829B2.

biological target: hVR1 (Homo sapiens, UniProt Q8NER1); construct: expressed in transfected cells; host or cells: HEK293; test: Human VR1 (hVR1) Functional Assay (FLIPR intracellular calcium, capsaicin challenge); format: cell-based; settings: test concentration 1 μM; capsaicin 0.030 μM; HEK293 cells expressing hVR1
Sequence (Q8NER1 whole entry): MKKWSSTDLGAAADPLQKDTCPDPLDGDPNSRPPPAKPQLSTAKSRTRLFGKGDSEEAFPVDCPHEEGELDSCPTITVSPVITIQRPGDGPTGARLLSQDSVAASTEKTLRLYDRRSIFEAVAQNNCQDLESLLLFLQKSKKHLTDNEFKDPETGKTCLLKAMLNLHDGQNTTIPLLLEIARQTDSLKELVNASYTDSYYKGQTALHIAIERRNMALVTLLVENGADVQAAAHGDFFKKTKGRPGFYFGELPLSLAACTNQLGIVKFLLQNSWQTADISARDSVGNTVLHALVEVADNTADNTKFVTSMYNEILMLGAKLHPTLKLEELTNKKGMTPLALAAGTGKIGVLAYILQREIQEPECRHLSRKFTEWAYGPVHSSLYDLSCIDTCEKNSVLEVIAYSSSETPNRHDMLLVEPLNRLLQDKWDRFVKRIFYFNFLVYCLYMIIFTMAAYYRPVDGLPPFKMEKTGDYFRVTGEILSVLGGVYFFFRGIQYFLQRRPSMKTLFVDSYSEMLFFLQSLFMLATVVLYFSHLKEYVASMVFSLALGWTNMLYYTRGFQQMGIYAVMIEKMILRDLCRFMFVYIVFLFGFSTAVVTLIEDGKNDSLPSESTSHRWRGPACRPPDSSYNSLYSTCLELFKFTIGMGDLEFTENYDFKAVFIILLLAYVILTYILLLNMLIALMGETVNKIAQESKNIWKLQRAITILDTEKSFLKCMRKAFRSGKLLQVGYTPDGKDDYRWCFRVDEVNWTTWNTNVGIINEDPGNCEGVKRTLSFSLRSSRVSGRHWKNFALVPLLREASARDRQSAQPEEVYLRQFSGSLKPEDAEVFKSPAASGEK
Reported inhibition at 1 µM values for a set of compounds
The reply should contain only the number, in %.

Worked set:
>  <compound>
CNS(=O)(=O)c1ccccc1-c1ccc2[nH]c(/C=C/c3ccc(F)c(Br)c3)nc2c1

>  <inhibition at 1 µM [%]>
101

$$$$
>  <compound>
CS(=O)(=O)c1ccc(CCc2nc3cc(-c4ccccc4S(N)(=O)=O)ccc3[nH]2)cc1

>  <inhibition at 1 µM [%]>
19

$$$$
>  <compound>
CC(C)(O)c1ccccc1-c1ccc2[nH]c(CCc3ccc(C(F)(F)F)cc3)nc2c1

>  <inhibition at 1 µM [%]>
100

$$$$
>  <compound>
CNS(=O)(=O)c1ccccc1-c1ccc2[nH]c(/C=C/c3ccc4cc[nH]c4c3)nc2c1

>  <inhibition at 1 µM [%]>
36

$$$$
>  <compound>
CC(C)(C)c1ccc(/C=C/c2nc3cc(-c4ccccc4F)c(C(F)(F)F)cc3[nH]2)cc1

>  <inhibition at 1 µM [%]>
28

$$$$

Entry under review: `CC(=O)Nc1ccccc1-c1ccc2[nH]c(/C=C/c3ccc(S(=O)(=O)C(F)(F)F)cc3)nc2c1` . Reported inhibition at 1 µM?
58

Entry under review: `NS(=O)(=O)c1ccccc1-c1ccc2[nH]c(/C=C/c3ccc(Br)cc3)nc2c1` . Reported inhibition at 1 µM?
98

Entry under review: `CNS(=O)(=O)c1ccccc1-c1ccc2[nH]c(/C=C/c3ccc(OC(F)(F)F)cc3)nc2c1` . Reported inhibition at 1 µM?
101

Entry under review: CC(C)(C)NS(=O)(=O)c1ccccc1-c1ccc2[nH]c(C3CC3c3ccc(C(F)(F)F)cc3)nc2c1 (centres unmarked) . Reported inhibition at 1 µM?
7

Entry under review: `NS(=O)(=O)c1ccccc1-c1ccc2[nH]c(/C=C/c3ccc(Cl)cc3F)nc2c1` . Reported inhibition at 1 µM?
100

Entry under review: `CNS(=O)(=O)c1ccccc1-c1ccc2[nH]c(/C=C/c3ccc(F)c(C(F)(F)F)c3)nc2c1` . Reported inhibition at 1 µM?
97

Entry under review: `CC(C)c1ccc(/C=C/c2nc3cc(-c4ccccc4NS(C)(=O)=O)ccc3[nH]2)cc1` . Reported inhibition at 1 µM?
96

Entry under review: `CC(C)(C)c1ccc(/C=C/c2nc3cc(-c4ccccc4CO)c(C(F)(F)F)cc3[nH]2)cc1` . Reported inhibition at 1 µM?
100

Entry under review: `NS(=O)(=O)c1ccccc1-c1ccc2[nH]c(CCc3cccc(F)c3F)nc2c1` . Reported inhibition at 1 µM?
98

---

target: UniProt:Q8NER1; assay: Human VR1 (hVR1) Functional Assay (FLIPR intracellular calcium, capsaicin challenge); settings: capsaicin 0.030 μM; HEK293 cells expressing hVR1
Entries get a class label from measured IC50. See ranges: one = under 9 nM, two = from 9 nM up to 40 nM, three = 40 nM and over

Examples with answers:
>  <compound>
NC(=O)c1ccccc1-c1ccc2[nH]c(/C=C/c3ccc(C(F)(F)F)cc3)nc2c1 [Cpd 13]

>  <assayed.target>
UniProt:Q8NER1

>  <assigned.class>
three

$$$$
>  <compound>
CC(C)c1ccc(CCc2nc3cc(-c4ccccc4S(N)(=O)=O)ccc3[nH]2)cc1 [Cpd 442]

>  <assayed.target>
UniProt:Q8NER1

>  <assigned.class>
one

$$$$
>  <compound>
CS(=O)(=O)Nc1ccccc1-c1ccc2[nH]c(/C=C/c3ccc(OC(F)F)cc3)nc2c1 [Cpd 410]

>  <assayed.target>
UniProt:Q8NER1

>  <assigned.class>
three

$$$$
>  <compound>
CC(C)(O)c1ccccc1-c1ccc2[nH]c([C@H]3C[C@@H]3c3ccc(C(F)(F)F)cc3)nc2c1 [Cpd 503]

>  <assayed.target>
UniProt:Q8NER1

>  <assigned.class>
two

$$$$
>  <compound>
CN(C)S(=O)(=O)c1ccccc1-c1ccc2[nH]c(/C=C/c3ccc(C(F)(F)F)cc3)nc2c1 [Cpd 398]

>  <assayed.target>
UniProt:Q8NER1

>  <assigned.class>
one

$$$$
>  <compound>
CC(C)(C)OC(=O)Nc1ccccc1-c1ccc2[nH]c(/C=C/c3ccc(C(C)(C)C)cc3)nc2c1 [Cpd 10]

>  <assayed.target>
UniProt:Q8NER1

>  <assigned.class>
three

$$$$

Now for a further compound.
Lab note: sort CC(=O)Nc1ccccc1-c1ccc2[nH]c(/C=C/c3ccc(C(C)(C)C)cc3)nc2c1 [Cpd 4] into the matching IC50 band.
three
